Source of measurements: patent US8563000B2

Please go through the items and note down their pEC50.
Target: hMC3 (Homo sapiens)
Sequence (P41968 whole entry): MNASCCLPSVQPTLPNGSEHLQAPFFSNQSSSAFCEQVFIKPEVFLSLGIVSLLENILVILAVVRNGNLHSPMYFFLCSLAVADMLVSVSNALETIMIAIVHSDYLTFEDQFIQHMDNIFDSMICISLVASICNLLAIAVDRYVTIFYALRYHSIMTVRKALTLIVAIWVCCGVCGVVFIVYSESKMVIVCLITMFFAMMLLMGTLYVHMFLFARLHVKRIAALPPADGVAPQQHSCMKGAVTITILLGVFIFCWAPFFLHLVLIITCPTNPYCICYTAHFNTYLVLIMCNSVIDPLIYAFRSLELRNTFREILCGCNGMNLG
Assay: Cyclic AMP bioassay (ECL), CHO-K1 cells expressing hMC3
Conditions: intracellular cAMP
# reply with the number alone; pEC50 is -log10 of concentration in mol/L

## Task Quick one: pEC50 for C[C@@H]1C(=O)N[C@@H](Cc2cnc[nH]2)C(=O)N[C@H](Cc2ccccc2)C(=O)N[C@@H](CCCNC(=N)N)C(=O)N[C@@H](Cc2c[nH]c3ccccc23)C(=O)N[C@H](C(N)=O)CCCCNC(=O)CC[C@@H]2NC(=O)N1C2=O ?
## Result 7.65

## Task Quick one: pEC50 for C[C@H]1NC(=O)[C@@H](NC(=O)[C@@H](CCCNC(=N)N)N2C(=O)CNC2=O)CSSC[C@@H](C(N)=O)NC(=O)[C@H](Cc2c[nH]c3ccccc23)NC(=O)[C@H](CCCNC(=N)N)NC(=O)[C@@H](Cc2ccccc2)NC(=O)[C@H](Cc2cnc[nH]2)NC1=O ?
## Result 7.94

## Task Quick one: pEC50 for N=C(N)NCCC[C@@H]1NC(=O)[C@@H](Cc2ccccc2)NC(=O)[C@H](Cc2cnc[nH]2)NC(=O)[C@H](CCC(=O)O)NC(=O)[C@@H](NC(=O)CN2C(=O)N[C@H](CCCNC(=N)N)C2=O)CSSC[C@@H](C(N)=O)NC(=O)[C@H](Cc2c[nH]c3ccccc23)NC1=O ?
## Result 7.77

## Task Quick one: pEC50 for CCCC[C@@H](C(=O)N[C@H]1CSSC[C@@H](C(N)=O)NC(=O)[C@H](Cc2c[nH]c3ccccc23)NC(=O)[C@H](CCCNC(=N)N)NC(=O)[C@@H](Cc2ccccc2)NC(=O)[C@H](Cc2cnc[nH]2)NC(=O)[C@@H](C)NC1=O)N1C(=O)N[C@H](C)C1=O ?
## Result 8.59

## Task Quick one: pEC50 for C[C@@H]1C(=O)N[C@@H](Cc2cnc[nH]2)C(=O)N[C@H](Cc2ccccc2)C(=O)N[C@@H](CCCNC(=N)N)C(=O)N[C@@H](Cc2c[nH]c3ccccc23)C(=O)N[C@H](C(N)=O)CCCNC(=O)C[C@@H]2NC(=O)N1C2=O ?
## Result 7.05
